Listed compounds paired with reported log10(IC50)
target: UniProtKB Q00975; assay: Assessment of calcium channel activity using FLIPR (Ca2+ influx in IMR32 cells); format: cell-based
READOUT: log10(IC50) (log10 of the value in µM)

compound="CC(C)(C)C(C(=O)N[C@H]1CC[C@H]2CN(Cc3cccc(C(F)(F)F)c3)C[C@H]21)c1ccccc1 (relative stereo) [Example 123]" recorded_value=-0.24
compound="O=C(N[C@H]1CC[C@H]2CN(Cc3ccccc3)C[C@H]21)C(C1CCCCC1)C1CCCCC1 (relative stereo) [Example 11]" recorded_value=0.67
compound="FC(F)(F)c1cccc(N2C[C@H]3CC[C@H](NCc4c[nH]nc4-c4cccs4)[C@H]3C2)n1 [Example 669]" recorded_value=-0.10
compound="CN[C@@H](CC(C)C)C(=O)N[C@H]1CC[C@@H]2CN(c3cccc(C(F)(F)F)n3)C[C@@H]21 [Example 590]" recorded_value=-0.35
compound="N#Cc1ccc(N2C[C@H]3CC[C@H](NC(=O)[C@@H]4C[C@@H](F)CN4)[C@H]3C2)cc1 [Example 633]" recorded_value=1.42

---

Listed compounds paired with reported pIC50
target: human Cav2.2 (Homo sapiens); experiment: Assessment of calcium channel activity using FLIPR (Ca2+ influx in IMR32 cells); assay type: cell-based
pIC50: −log10 of the molar value.
READOUT: pIC50

input_smiles=CC(C)(C)NC(=O)N[C@H]1CC[C@@H]2CN(c3cccc(C(F)(F)F)n3)C[C@@H]21 result_modifier== recorded_value=5.86
input_smiles=O=C(Nc1ccc(F)cc1)N[C@H]1CC[C@@H]2CN(c3cccc(C(F)(F)F)n3)C[C@@H]21 result_modifier== recorded_value=5.21
input_smiles=CN[C@H](C(=O)N[C@H]1CC[C@@H]2CN(c3ccc(OC(F)(F)F)cc3)C[C@@H]21)C(C)C result_modifier=< recorded_value=5.02
input_smiles=CN[C@@H](CC(C)C)C(=O)N[C@H]1CC[C@@H]2CN(c3ccc(F)c(Cl)c3)C[C@@H]21 result_modifier== recorded_value=5.75
input_smiles=O=C(N[C@H]1CC[C@@H]2CN(c3cccc(C(F)(F)F)n3)C[C@@H]21)[C@@H]1CC(F)(F)CN1 result_modifier== recorded_value=5.66
input_smiles=COc1ccccc1N1C[C@H]2CC[C@H](NC(=O)[C@@H]3C[C@@H](F)CN3)[C@H]2C1 result_modifier=< recorded_value=4.52
input_smiles=CN[C@@H](CC(C)C)C(=O)N[C@H]1CC[C@@H]2CN(Cc3ccc(F)cc3)C[C@@H]21 result_modifier=< recorded_value=4.52

---

Listed molecules paired with reported IC50
biological target: human Cav2.2 (Homo sapiens, UniProt Q00975); assay: Assessment of calcium channel activity using FLIPR (Ca2+ influx in IMR32 cells); type: cell-based
Sequence (Q00975 whole entry): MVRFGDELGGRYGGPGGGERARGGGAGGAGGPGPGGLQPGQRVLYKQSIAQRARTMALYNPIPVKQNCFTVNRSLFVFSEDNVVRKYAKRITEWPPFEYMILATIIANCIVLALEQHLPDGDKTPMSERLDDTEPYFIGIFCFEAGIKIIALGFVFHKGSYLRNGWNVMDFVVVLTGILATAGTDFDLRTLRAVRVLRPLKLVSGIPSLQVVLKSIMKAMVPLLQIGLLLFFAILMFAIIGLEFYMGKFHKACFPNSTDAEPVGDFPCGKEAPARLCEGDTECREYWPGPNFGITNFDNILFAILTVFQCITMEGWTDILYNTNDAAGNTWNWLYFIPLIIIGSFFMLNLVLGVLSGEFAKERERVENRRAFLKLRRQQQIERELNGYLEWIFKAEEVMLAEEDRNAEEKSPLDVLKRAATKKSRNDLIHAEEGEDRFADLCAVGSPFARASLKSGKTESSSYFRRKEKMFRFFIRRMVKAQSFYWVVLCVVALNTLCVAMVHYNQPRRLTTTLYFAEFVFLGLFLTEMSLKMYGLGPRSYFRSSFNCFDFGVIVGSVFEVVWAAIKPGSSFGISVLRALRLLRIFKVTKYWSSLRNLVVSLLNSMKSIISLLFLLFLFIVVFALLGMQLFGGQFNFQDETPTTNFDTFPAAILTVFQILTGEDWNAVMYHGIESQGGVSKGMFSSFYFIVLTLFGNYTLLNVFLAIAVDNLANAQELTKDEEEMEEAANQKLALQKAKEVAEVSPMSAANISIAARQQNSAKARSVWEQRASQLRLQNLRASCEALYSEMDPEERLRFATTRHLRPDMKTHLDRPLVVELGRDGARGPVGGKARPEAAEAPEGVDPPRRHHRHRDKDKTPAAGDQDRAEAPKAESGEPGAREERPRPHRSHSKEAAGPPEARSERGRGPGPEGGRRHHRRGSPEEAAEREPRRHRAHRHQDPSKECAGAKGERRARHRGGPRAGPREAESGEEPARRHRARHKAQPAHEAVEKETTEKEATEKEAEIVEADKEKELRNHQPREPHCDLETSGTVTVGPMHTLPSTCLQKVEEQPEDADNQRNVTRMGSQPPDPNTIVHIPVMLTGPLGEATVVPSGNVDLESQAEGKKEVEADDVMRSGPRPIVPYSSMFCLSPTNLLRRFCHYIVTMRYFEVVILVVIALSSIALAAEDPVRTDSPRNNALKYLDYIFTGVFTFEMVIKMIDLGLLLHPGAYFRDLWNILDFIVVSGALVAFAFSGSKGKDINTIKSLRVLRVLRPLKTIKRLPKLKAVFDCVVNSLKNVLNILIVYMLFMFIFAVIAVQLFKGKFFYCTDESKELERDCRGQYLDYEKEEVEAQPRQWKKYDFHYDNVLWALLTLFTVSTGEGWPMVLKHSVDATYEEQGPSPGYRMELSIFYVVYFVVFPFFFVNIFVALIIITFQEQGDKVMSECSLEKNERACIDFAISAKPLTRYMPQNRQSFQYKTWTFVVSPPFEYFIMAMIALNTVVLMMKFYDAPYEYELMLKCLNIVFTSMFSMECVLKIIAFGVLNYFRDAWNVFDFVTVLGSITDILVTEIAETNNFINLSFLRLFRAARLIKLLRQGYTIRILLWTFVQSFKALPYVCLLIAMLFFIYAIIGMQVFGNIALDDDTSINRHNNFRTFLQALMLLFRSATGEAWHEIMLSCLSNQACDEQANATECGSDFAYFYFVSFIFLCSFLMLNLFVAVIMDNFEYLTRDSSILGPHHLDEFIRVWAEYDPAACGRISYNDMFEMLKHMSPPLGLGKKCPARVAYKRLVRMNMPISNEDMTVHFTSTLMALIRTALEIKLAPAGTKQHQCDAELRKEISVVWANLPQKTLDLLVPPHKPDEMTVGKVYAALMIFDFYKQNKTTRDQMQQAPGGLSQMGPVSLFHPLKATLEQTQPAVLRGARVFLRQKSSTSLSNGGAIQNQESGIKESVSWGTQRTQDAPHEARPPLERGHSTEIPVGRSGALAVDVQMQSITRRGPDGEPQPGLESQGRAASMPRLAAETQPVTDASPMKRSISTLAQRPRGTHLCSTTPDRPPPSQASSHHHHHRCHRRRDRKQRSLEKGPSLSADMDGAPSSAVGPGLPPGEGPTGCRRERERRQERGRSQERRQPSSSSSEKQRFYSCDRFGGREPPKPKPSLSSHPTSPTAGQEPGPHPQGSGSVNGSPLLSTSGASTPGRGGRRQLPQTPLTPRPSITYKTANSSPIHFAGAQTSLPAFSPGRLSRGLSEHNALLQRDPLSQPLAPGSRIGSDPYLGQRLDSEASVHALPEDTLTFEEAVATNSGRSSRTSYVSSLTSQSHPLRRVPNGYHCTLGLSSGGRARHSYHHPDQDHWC
Sequence (P54289 25-956 partner limits assumed): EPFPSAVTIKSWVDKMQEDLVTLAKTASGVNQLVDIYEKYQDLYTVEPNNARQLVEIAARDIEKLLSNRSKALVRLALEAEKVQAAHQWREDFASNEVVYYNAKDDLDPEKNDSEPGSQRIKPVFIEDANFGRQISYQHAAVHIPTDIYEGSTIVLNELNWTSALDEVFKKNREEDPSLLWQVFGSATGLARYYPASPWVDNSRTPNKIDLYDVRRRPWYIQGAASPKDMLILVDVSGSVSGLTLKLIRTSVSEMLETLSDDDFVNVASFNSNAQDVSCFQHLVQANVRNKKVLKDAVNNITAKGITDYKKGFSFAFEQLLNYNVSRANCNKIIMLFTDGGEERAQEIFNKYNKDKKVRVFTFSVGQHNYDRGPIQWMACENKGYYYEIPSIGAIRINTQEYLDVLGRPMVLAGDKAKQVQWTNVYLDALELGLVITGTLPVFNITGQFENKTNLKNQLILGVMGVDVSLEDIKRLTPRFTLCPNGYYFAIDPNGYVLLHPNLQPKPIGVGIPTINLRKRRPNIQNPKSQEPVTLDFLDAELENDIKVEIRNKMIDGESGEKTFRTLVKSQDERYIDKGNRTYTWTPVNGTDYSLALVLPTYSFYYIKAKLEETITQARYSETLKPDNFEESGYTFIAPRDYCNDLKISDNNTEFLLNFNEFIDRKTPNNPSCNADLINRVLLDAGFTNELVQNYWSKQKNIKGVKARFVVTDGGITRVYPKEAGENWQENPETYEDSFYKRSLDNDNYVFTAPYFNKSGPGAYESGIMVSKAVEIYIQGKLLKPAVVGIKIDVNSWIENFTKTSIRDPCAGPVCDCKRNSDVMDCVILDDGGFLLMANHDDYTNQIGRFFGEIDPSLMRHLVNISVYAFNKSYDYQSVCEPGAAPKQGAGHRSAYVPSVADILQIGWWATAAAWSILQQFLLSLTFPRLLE
Sequence (P54289 957-1103 partner limits assumed): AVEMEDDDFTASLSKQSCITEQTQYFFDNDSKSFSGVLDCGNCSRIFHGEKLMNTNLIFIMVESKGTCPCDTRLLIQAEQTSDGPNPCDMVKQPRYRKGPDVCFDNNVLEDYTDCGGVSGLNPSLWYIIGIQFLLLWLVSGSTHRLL
Sequence (P54284 whole entry partner): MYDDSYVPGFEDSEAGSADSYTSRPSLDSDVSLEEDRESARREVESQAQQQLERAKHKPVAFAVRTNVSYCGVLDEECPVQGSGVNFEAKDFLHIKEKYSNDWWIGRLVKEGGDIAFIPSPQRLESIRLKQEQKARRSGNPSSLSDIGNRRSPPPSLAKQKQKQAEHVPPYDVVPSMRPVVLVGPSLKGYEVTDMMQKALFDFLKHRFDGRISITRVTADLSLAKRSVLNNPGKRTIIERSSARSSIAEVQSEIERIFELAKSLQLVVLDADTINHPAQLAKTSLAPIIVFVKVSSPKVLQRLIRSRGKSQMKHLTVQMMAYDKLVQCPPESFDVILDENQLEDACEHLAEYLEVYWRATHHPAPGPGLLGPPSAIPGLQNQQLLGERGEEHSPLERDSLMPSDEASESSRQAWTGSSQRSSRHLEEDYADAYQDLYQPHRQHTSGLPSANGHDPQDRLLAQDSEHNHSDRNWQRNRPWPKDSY
READOUT: IC50 (nM)

input_smiles=Cc1ccc(N2C[C@H]3CC[C@H](NC(=O)[C@@H]4C[C@@H](F)CN4)[C@H]3C2)cc1 result_modifier== recorded_value=21200
input_smiles=O=C(N[C@H]1CC[C@H]2CNC[C@H]21)C(C1CCCCC1)C1CCCCC1 result_modifier== recorded_value=8540
input_smiles=O=C(N[C@H]1CC[C@@H]2CN(c3ccc(C(F)(F)F)cc3)C[C@@H]21)[C@@H]1C[C@@H](F)CN1 result_modifier== recorded_value=8260
input_smiles=CN[C@@H](CC(C)C)C(=O)N[C@H]1CC[C@@H]2CN(Cc3ccccc3)C[C@@H]21 result_modifier=> recorded_value=30000
input_smiles=CC(C)C[C@@H](C(=O)N[C@@H]1CC[C@H]2CN(S(=O)(=O)C3CC3)C[C@H]21)N1CCCC1 result_modifier=> recorded_value=5200
input_smiles=CN[C@H](C(=O)N[C@H]1CC[C@@H]2CN(c3ccc(C(F)(F)F)cc3)C[C@@H]21)C(C)C result_modifier=> recorded_value=9500
input_smiles=CNCC(=O)N[C@H]1CC[C@@H]2CN(c3ccc(C(F)(F)F)cc3)C[C@@H]21 result_modifier=> recorded_value=9500
input_smiles=O=S(=O)(N[C@H]1CC[C@@H]2CN(c3cccc(C(F)(F)F)n3)C[C@@H]21)c1ccccc1Cl result_modifier== recorded_value=4500
input_smiles=CC(C)(C)NC(=O)N[C@H]1CC[C@@H]2CN(c3cccc(OC(F)(F)F)c3)C[C@@H]21 result_modifier== recorded_value=1860
input_smiles=O=C(N[C@@H]1CC[C@H]2CN(CCCCCC(c3ccc(F)cc3)c3ccc(F)cc3)C[C@H]21)C(C1CCCCC1)C1CCCCC1 result_modifier== recorded_value=1340
input_smiles=CN[C@@H](CC(C)C)C(=O)N[C@H]1CC[C@@H]2CN(c3cccc(C(F)(F)F)c3)C[C@@H]21 result_modifier== recorded_value=1190
input_smiles=COc1ccc(-c2n[nH]cc2CN[C@H]2CC[C@@H]3CN(c4cccc(C(F)(F)F)n4)C[C@@H]32)cc1 result_modifier== recorded_value=980
input_smiles=FC(F)(F)c1cccc(N2C[C@H]3CC[C@H](NCc4nc(-c5ccccc5)c[nH]4)[C@H]3C2)n1 result_modifier== recorded_value=1710
input_smiles=O=C(N[C@H]1CC[C@@H]2CN(c3cccc(C(F)(F)F)n3)C[C@@H]21)c1cccc(F)c1 result_modifier== recorded_value=340
input_smiles=O=C(N[C@H]1CC[C@@H]2CN(c3cccc(C(F)(F)F)n3)C[C@@H]21)C1(O)CCCC1 result_modifier== recorded_value=1680
